This collection of values is drawn from patent US9278981B2.

Target Desc: ABL1 (64-515) (Homo sapiens (Human))
Experiment Notes: Radio ABL1 (64-515) assay (radiometric filter-binding)
Type: biochemical
pIC50: −log10 of the molar value.
Result Type: pIC50

Some compounds with known pIC50 results, for comparison:
Ask: Quick check: pIC50 of O=C(Nc1ccc(S(F)(F)(F)(F)F)cc1)c1cnc(N2CC[C@@H](O)C2)c(-c2cncc(F)c2)c1 ?
Reply: 8.70

Ask: Quick check: pIC50 of CN(CCO)c1ncc(C(=O)Nc2ccc(SC(F)(F)F)cc2)cc1-c1cncnc1 ?
Reply: 8.70

A: O=C(Nc1ccc(OC(F)(F)F)cc1)c1ccc(N2CCOC2=O)c(-c2cncnc2)c1
B: O=C(Nc1ccc(SC(F)(F)F)cc1)c1cnc(N2CC[C@H](CO)C2)c(-c2cncnc2)c1
Ask: Please indicate which has the smaller reported pIC50: A , or B . Please respond with the label that marks your chosen entry.
Reply: B
(B: 8.52, A: 9.40)

====

Target Desc: ABL1 (64-515) (Homo sapiens (Human))
Experiment Notes: Radio ABL1 (64-515) assay (radiometric filter-binding)
Format: biochemical
Result Type: IC50 (nM)

Ask: Reported IC50 for ABL1 (64-515) (Homo sapiens (Human)), given O=C(Nc1ccc(S(F)(F)(F)(F)F)cc1)c1cnc(N2CC[C@@H](O)C2)c(-c2cncnc2)c1 ?
Reply: 3

P: Cc1ccc(-c2cc(C(=O)Nc3ccc(OC(F)(F)F)cc3)ccc2N2C[C@H](O)[C@@H](O)C2)cn1
Q: Cc1ccc(-c2cc(C(=O)Nc3ccc(OC(F)(F)F)cc3)cnc2N2CC(O)C2)cn1
Ask: Please indicate which has the smaller reported IC50: P , or Q . Please respond with the label that marks your chosen entry.
Reply: Q
(Q: 4 nM, P: 17 nM)

====

Target Desc: ABL1 (64-515) (Homo sapiens (Human), UniProt P00519)
Sequence (P00519 64-515): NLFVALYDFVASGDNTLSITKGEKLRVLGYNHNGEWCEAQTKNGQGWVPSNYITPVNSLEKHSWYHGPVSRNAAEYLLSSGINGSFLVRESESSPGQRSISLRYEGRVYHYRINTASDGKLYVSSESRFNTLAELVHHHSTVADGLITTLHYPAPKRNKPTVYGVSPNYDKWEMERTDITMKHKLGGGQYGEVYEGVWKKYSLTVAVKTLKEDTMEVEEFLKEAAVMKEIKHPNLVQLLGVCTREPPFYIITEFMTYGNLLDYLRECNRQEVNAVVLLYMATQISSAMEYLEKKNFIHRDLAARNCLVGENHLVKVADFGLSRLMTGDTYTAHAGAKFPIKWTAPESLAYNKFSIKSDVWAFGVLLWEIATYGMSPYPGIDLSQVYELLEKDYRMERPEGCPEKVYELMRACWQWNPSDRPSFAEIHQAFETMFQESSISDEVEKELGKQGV
Experiment Notes: Radio ABL1 (64-515) assay (radiometric filter-binding)
Type: biochemical
Result Type: IC50 (nM)

Some compounds with known IC50 results, for comparison:
Ask: Quick check: IC50 of CO[C@H]1CN(c2ncc(C(=O)Nc3ccc(OC(F)(F)F)cc3)cc2-c2cncc(F)c2)C[C@@H]1N (relative stereo) [Example 286] ?
Reply: 2

Ask: Quick check: IC50 of Cc1ccc(-c2cc(C(=O)Nc3ccc(OC(F)(F)F)cc3)cnc2N2CC(C)(O)C2)cn1 [Example 131] ?
Reply: 8.4

Ask: Quick check: IC50 of O=C(Nc1ccc(OC(F)(F)F)cc1)c1cnc(N2C[C@H](CO)[C@@H](O)C2)c(-c2cncc(F)c2)c1 (relative stereo) [Example 92] ?
Reply: 6

Ask: Quick check: IC50 of Cc1ncc(-c2cc(C(=O)Nc3ccc(OC(F)(F)F)cc3)cnc2N2CC[C@H](CO)C2)cc1F [Example 87] ?
Reply: 6

Ask: Quick check: IC50 of NC[C@@H]1CCN(c2ncc(C(=O)Nc3ccc(OC(F)(F)Cl)cc3)cc2-c2cncnc2)C1 [Example 177] ?
Reply: 1

1: CN(C)[C@H]1CN(c2ncc(C(=O)Nc3ccc(OC(F)(F)F)cc3)cc2-c2cncc(F)c2)C[C@@H]1O [Example 236]
2: CCN(CCO)c1ncc(C(=O)Nc2ccc(OC(F)(F)Cl)cc2)cc1-c1cncc(F)c1 [Example 183]
Ask: Between 1 and 2 , whose measured IC50 reads higher? Please respond with the label that marks your chosen entry.
Reply: 1

I: CCc1ccc(-c2cc(C(=O)Nc3ccc(OC(F)(F)F)cc3)cnc2N2CC[C@H](CO)C2)cn1 [Example 83]
II: O=C(Nc1ccc(OC(F)(F)F)cc1)c1cnc(N2CC[C@H](CO)C2)c(-c2ccc(CF)nc2)c1 [Example 84]
Ask: Between I and II , whose measured IC50 reads higher? Please respond with the label that marks your chosen entry.
Reply: I
